All figures here come from PubChem BioAssay.

- TEST PROTOCOL: modulators of S6 phosphorylation in cells, primary screen, cell-based, A549, cytoblot, luminescence, serum-stimulated (AID 1158);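 also: serum-stimulated A549 lung adenocarcinoma cells; signal is phosphorylated S6 detected by cytoblot immunostaining with HRP secondary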
- EXPERIMENTAL CONDITIONS: A549 phospho-S6 cytoblot, 5 h, higher = more signal
OUTCOME MEASURE: z-score
// response body must contain only the number

// worked examples, z-score included
O=C1[C@H]2[C@H]3[C@H](O)[C@H](O)CC(=NOCc4ccccc4)[C@H]3CC[C@H]2C(=O)N1C1CCCCC1 = -0.441
C=CC[C@@H]1C=C[C@H](ON=C(C)CCN2CCCCc3nc(C)c(C)cc32)[C@@H](CO)O1 = -0.53
O=C1CCCC=C1C(O)C1CCCCC1 (stereo unspecified) = -0.178
CC(CCN1CCCCc2nc(C)c(C)cc21)=NOC[C@@H](O)[C@H]1O[C@@H]2OC(C)(C)O[C@@H]2[C@H]1O = -0.67
CO[C@@H]1[C@H](O)CO[C@H]1C=Cc1ccccc1 = 0.722

Consider the record given below.
Query string: For CC(C)(C)N1C(=O)[C@H]2[C@H]3[C@H](O)[C@H](O)CC(=NOC[C@@H](O)COCc4ccco4)[C@H]3CC[C@H]2C1=O , write its z-score.
Result string: -0.159

----------
- TEST PROTOCOL: COS7 lysate on small-molecule microarray, probe aHis, 635 nm (AID 1123);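 also: z-score combines 667nm fluorescence intensity with signal-to-noise per printed compound spot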
- EXPERIMENTAL CONDITIONS: COS7 cell lysate, fluorescence, higher = more signal
Known composite z-score of a selection of compounds
// response body must contain only the number

// worked examples, composite z-score included
CCOC(=O)[C@H](Cc1ccccc1)NC(=O)CCC1CC(OC(=O)NCCc2ccc(F)cc2)CC2(CCCC(COC(=O)NCCC(C)C)O2)O1 (some centres not stated) = 1.17
COC(=O)[C@H](CCSC)NC(=O)CC=C[C@@H](C)CO = 1.42
C[C@H]1CC[C@H]2C(=O)O[C@H](CO)CN2[C@@H]1c1ccc(Br)cc1 = -0.0346
C[C@H]1CC[C@H]2C(=O)N[C@H](Cc3ccccc3)C(=O)N2[C@@H]1c1ccccc1 = -0.227
CN1CCc2nc(-c3ccccc3)c(-c3ccccc3)cc2C1 = -0.0596
O=C1[C@H]2[C@H]3[C@H](O)[C@H](O)CC(=NO[C@@H]4O[C@H](CO)[C@@H](O)[C@H](O)[C@H]4O)[C@@H]3CC[C@H]2C(=O)N1C[C@@H]1CCCO1 = 0.146

Query string: For CC(C)CON=C1[C@H]2CCn3c(=O)n(C)c(=O)n3[C@H]2[C@H](O)[C@@H]2O[C@H]12 , write its composite z-score.
Result string: -0.818

Query string: For O=C1CCCC=C1C(O)C1CCCCC1 (configuration not stated) , write its composite z-score.
Result string: 0.181

Query string: For C[C@H]1C=CCC(=O)OC[C@H](C)C(=O)N2CCC[C@H]2C(=O)OC1 , write its composite z-score.
Result string: -0.802

Query string: For C[C@@H]1CC[C@H]2C(=O)O[C@@H](COc3ccc(C(C)(C)C)cc3)CN2[C@H]1c1ccc(Br)cc1 , write its composite z-score.
Result string: 1.39

Query string: For O=C(NCCC[N+]1=CC=NC1c1ccccc1)N1CCCc2nc(-c3ccc(Br)cc3)ccc21 (configuration not stated) , write its composite z-score.
Result string: -0.382

Query string: For CO[C@H]1COC(=O)CCC[C@H](C)[C@H](OC)COC(=O)CC=C[C@@H]1C , write its composite z-score.
Result string: -1.17

Query string: For CCOC(=O)CCN1C(=O)[C@H]2[C@H]3[C@H](O)[C@H](O)CC(=NO[C@@H]4O[C@H](CO)[C@@H](O)[C@H](O)[C@H]4O)[C@@H]3CC[C@H]2C1=O , write its composite z-score.
Result string: 0.279

Query string: For CC(=O)OC[C@H]1O[C@H](CC=NO[C@H](C)c2cn([C@@H]3COC[C@H]3O)nn2)C=C[C@@H]1OC(C)=O , write its composite z-score.
Result string: -0.426

Query string: For CC(CCN1CCCc2nc(C)c(C)cc21)=NO[C@@H](C)c1cn([C@H](CO)Cc2ccccc2)nn1 , write its composite z-score.
Result string: 0.531

Query string: For CCN1C(=O)[C@H]2[C@H]3[C@H](O)[C@H](O)CC(=NOC[C@@H](O)[C@H]4O[C@@H]5OC(C)(C)O[C@@H]5[C@H]4O)[C@@H]3CC[C@H]2C1=O , write its composite z-score.
Result string: 0.324

Query string: For C=CC[C@@H]1C=CC(ON=C(C)C)[C@@H](CO)O1 (some centres not stated) , write its composite z-score.
Result string: -0.301
